- Procedure Summary: Phase 2 clinical study of Example 1: serum level of compound (II) at embryo transfer
- Format: in vivo
- Conditions Used: female, human, 300 mg oral dose about 4 hours prior to embryo transfer, mean, n = 60
- Procedure: A total of 247 female subjects were selected for treatment based on a variety of inclusion criteria. Of these, 244 subjects completed the study. […] The embryo transfer procedure was conducted three days after the oocyte retrieval day (OPU+3 days). Subjects undergoing embryo transfer were monitored prior to initiating the procedure. […]
Recorded Metric: concentration at 4 hours (ng/mL)
Give just the number in ng/mL; leave the unit off.

INPUT: Reported concentration at 4 hours, compound CO/N=C1/C[C@@H](CO)N(C(=O)c2ccc(-c3ccccc3C)cc2)C1 : ____
OUTPUT: 1450

----------
- Procedure Summary: Phase 2 clinical study of Example 1: serum level of compound (II) at embryo transfer
- Format: in vivo
- Conditions Used: female, human, 900 mg oral dose about 4 hours prior to embryo transfer, mean, n = 60
Recorded Metric: concentration at 4 hours (ng/mL)
Answer with a number only, understood to be in ng/mL.

INPUT: Using the record for CO/N=C1/C[C@@H](CO)N(C(=O)c2ccc(-c3ccccc3C)cc2)C1 , report its concentration at 4 hours.
OUTPUT: 4160

----------
- Procedure Summary: Phase 2 clinical study of Example 1: serum level of compound (II) at embryo transfer
- Format: in vivo
- Conditions Used: female, human, 100 mg oral dose about 4 hours prior to embryo transfer, mean, n = 62
Recorded Metric: concentration at 4 hours (ng/mL)
Form entry: value (ng/mL) — number only.

INPUT: Fill in the blank: the reported concentration at 4 hours of CO/N=C1/C[C@@H](CO)N(C(=O)c2ccc(-c3ccccc3C)cc2)C1 [compound (II)] is ____.
OUTPUT: 484
